Where these numbers come from: PubChem BioAssay (NCI)

method: NCI Yeast Anticancer Drug Screen. Data for the rad50 strain (AID 155);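 also: 0% = growth of vehicle-only cultures of the same strain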
statedConditions: S. cerevisiae rad50 strain growth inhibition; at 5.0 µM (retest, dose inferred, filed as 0.5)
This is part of a sample that, as a whole, favours compounds with a hit. Of some 79,000 tested, about 15% had one in any assay. The source made the active and inactive calls. Rule as the data show it: active = growth inhibition above about 70%; inactive = the rest.
Classes used: true (1) for active, false (0) for inactive

1. CC1(Cl)CC(C)(/C=C/Cl)C(Cl)CC1Cl (centres undefined)    false (0)
2. CC1([CH2][Hg][I])CS(=O)(=O)CC(C)([CH2][Hg][I])O1 (centres undefined)    true (1)
3. COc1ccccc1[As]=O (centres undefined)    false (0)
4. N#CC(C#N)=Cc1ccc2c(c1)OC(Cl)O2 (centres undefined)    false (0)
5. CC(=O)[O-].CC(=O)[O-].O=C(N/N=C/c1cc(Cl)cc(Cl)c1[OH2+])c1ccncc1.[Mn+2]    false (0)
6. CC(=O)[O][Hg][c]1ccccc1N    false (0)
7. N#Cc1ccc([Se]c2ccccc2)cc1    true (1)
8. O=[N+]([O-])O.[NH-]C1CCCCC1[NH-].[NH-]C1CCCCC1[NH-].[NH-]C1CCCCC1[NH-].[OH-].[OH-].[OH-].[Pt+4].[Pt+4].[Pt+4] (centres undefined)    false (0)
9. COc1cc(N(CCCl)CCCl)ccc1C=Nc1cccc(Cl)c1    false (0)
10. CCC1(O)C(=O)OCc2c1cc1n(c2=O)Cc2c-1nc1ccccc1c2OC (centres undefined)    true (1)
11. CCC[CH2][Sn]([CH2]CCC)([CH2]CCC)[O]C(=O)C[N+](C)(C)c1cc[c]([Hg][c]2ccc(N(C)C)cc2)cc1    true (1)
12. O=C1OC2C(O1)C1(Cl)C(Cl)=C(Cl)C2(Cl)C1(Cl)Cl (centres undefined)    false (0)
13. CC[C@@]1(O)CC(OC2CC(N3CCOCC3)C(O)C(C)O2)c2c(O)c3c(c(O)c2[C@H]1O)C(=O)c1cccc(O)c1C3=O (some centres undefined)    true (1)
14. CCCCCCCCCCCCCCCCCC[N+](C)(C)C    true (1)
15. O=C(CCN1CC1)NCCc1ccccc1    false (0)
16. C/C(=N\O)C(CN(C)C)C(c1ccccc1)c1c(O)c2ccccc2oc1=O (centres undefined)    false (0)
17. O=c1oc2ccccc2c(O)c1C(c1ccc(-c2ccccc2)cc1)c1c(O)c2ccccc2oc1=O    false (0)
18. CCNC(C)(C)C(SS)c1ccc(Br)cc1 (centres undefined)    false (0)
19. [I][Hg][I].c1ccc(N=P(c2ccccc2)(c2ccccc2)c2ccccc2)cc1    true (1)
20. CC/C(=C(/CC)c1ccc(OP(N)(=O)N(CCCl)CCCl)cc1)c1ccc(OP(N)(=O)N(CCCl)CCCl)cc1 (centres undefined)    false (0)
21. COC1=C(C)C(=O)c2c(c(COC(N)=O)c3n2CC2C3N2C)C1=O (centres undefined)    false (0)
22. O=C(c1ccc(Br)cc1)C1C(c2ccccc2)N1C1CCCCC1 (centres undefined)    false (0)
23. ClCCN(CCCl)c1ccc(C=NCCCCN=Cc2ccc(N(CCCl)CCCl)cc2)cc1    false (0)
24. Cc1cc[n+](C2=C(Nc3cc(C)cc(C)c3)C(=O)c3ccccc3C2=O)cc1    false (0)
25. C[As](C)SCC1OC2OC(C)(C)OC2C2OC(C)(C)OC12 (centres undefined)    false (0)
26. O=c1oc2ccccc2c(O)c1C(c1ccc2c(c1)Cc1ccccc1-2)c1c(O)c2ccccc2oc1=O    false (0)
27. COc1cc(OC)c(OC)cc1/C=C/[N+](=O)[O-]    false (0)
28. COC(=O)[C@@]12OC[C@]34[C@H]([C@@H](O)[C@@H]1O)[C@@]1(C)CC(=O)C(O)=C(C)[C@@H]1C[C@H]3OC(=O)[C@H](OC(=O)/C=C(\C)C(C)C)[C@@H]24    true (1)
29. CN(C)c1ccc(C2N(Cc3ccc(N(CCCl)CCCl)cc3Cl)CCCN2Cc2ccc(N(CCCl)CCCl)cc2Cl)cc1    false (0)
